Form field: cytochrome c release ratio (one value per entry).
ASSAY_SUMMARY: blockers of cytochrome c efflux from mitochondria – biochemical, purified mitochondria (AID 1603);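 note: mouse liver mitochondria challenged with calcium chloride; signal normalized to the plate average as 100%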
SETTINGS: stronger effect = lower value
Numbered stars: 1 amine (or outer) side, 2 acyl side, 3 side chain; on linkers, the order of the positions; unused ones are H or OH. Bridge positions count the residues as written; N and C are the ends. Square brackets hold non-standard residues; d marks the D form. Peptide text beside a SMILES is read from it. * marks the point of attachment. ξ: configuration not given here. ΔAla(Z-3-ureido) = NC(=O)N/C=C(\N)C(=O)O; X2 = NC1=NCCC(C(N[*:1])C(=O)[*:2])N1; ξβ3hOrn = NCCCC(N)CC(=O)*; Dap = NC[CH](N)C(=O)O
REPORTED_ENDPOINT: cytochrome c release ratio

COMPOUND	REPORTED_ENDPOINT	ENDPOINT_VALUE
COC1=C2C[C@@H](C)C[C@H](OC)[C@H](O)[C@@H](C)/C=C(\C)[C@@H](OC(N)=O)[C@H](OC)/C=C\C=C(/C)C(=O)NC(=CC1=O)C2=O	cytochrome c release ratio	1.13
COc1ccc2c(c1OC)C(=O)O[C@H]2[C@@H]1c2ccccc2CCN1C	cytochrome c release ratio	0.71
NCC1OC(OC2C(N)CC(N)C(OC3OC(CO)C(O)C(N)C3O)C2O)C(N)C(O)C1O (stereo not given)	cytochrome c release ratio	4.45
CC(C)[C@@H](C)/C=C/[C@@H](C)C1CC[C@H]2/C(=C/C=C3\C[C@@H](O)CC[C@@H]3C)CCC[C@]12C (stereo not given in full)	cytochrome c release ratio	0.91
NCCCC(N)CC(=O)NCC1NC(=O)C(CO)NC(=O)C(N)CNC(=O)C(C2CCN=C(N)N2)NC(=O)/C(=C/NC(N)=O)NC1=O (stereo not drawn) (H-[Dap]S[Dap](ξβ3hOrn)[ΔAla(Z-3-ureido)][X2]; lactam 1-C; configuration not given here)	cytochrome c release ratio	2.07
CC(=O)C1CCC2C3CC=C4CC(OS(=O)(=O)O)CC[C@]4(C)C3CC[C@]12C (stereo not given in full)	cytochrome c release ratio	1.34
CC(Oc1ccccc1)C(=O)NC1C(=O)N2C(C(=O)O)C(C)(C)S[C@H]12 (stereo not given in full)	cytochrome c release ratio	0.66
CN[C@@H]1[C@H](O)[C@H](NC)[C@H]2O[C@@]3(O)C(=O)C[C@@H](C)O[C@H]3OC2[C@H]1O (stereo not given in full)	cytochrome c release ratio	0.86
CC(=O)[C@H]1CCC2C3CC=C4C[C@@H](O)CC[C@]4(C)C3CC[C@@]21C (stereo not given in full)	cytochrome c release ratio	1.03
NC[C@@H]1O[C@H](O[C@H]2[C@@H](O)[C@H](O[C@@H]3[C@@H](O)[C@H](N)C[C@H](N)[C@H]3O[C@@H]3O[C@H](CO)[C@@H](O)C[C@H]3N)O[C@@H]2CO)[C@H](N)[C@@H](O)[C@@H]1O[C@H]1O[C@H](CO)[C@@H](O)[C@H](O)[C@@H]1O	cytochrome c release ratio	0.95
